Origin of values: patent US9533965B2

ASSAY_NAME: Preliminary pharmacokinetic experiment in rats by gavage
Type: in vivo, SD rats
MEASUREMENT_CONDITIONS: male, Sprague-Dawley (SD), rat, plasma, po, 10 mg/kg, 10 mg/kg by gavage, read-out: MRT

COMPOUND_STRUCTURE_STRING: CNCc1ccc(-c2cc3cc(F)cc(C(N)=O)c3o2)cc1
SCALE_UNIT: h
MRT: 3.94

---

System: Chinese hamster lung fibroblast cell line VC8 (BRCA2−/−)
ASSAY_NAME: In vitro cell proliferation inhibition (MTT), VC8 cells
Format: cell-based
MEASUREMENT_CONDITIONS: MTT, 72 h, VC8 (BRCA2−/−); read-out: VC8 cell IC50
PROPERTY_MEASURED: IC50 (nM)

COMPOUND_STRUCTURE_STRING: NC(=O)c1cc(F)cc2cc(-c3ccc(CN4CCCCC4)cc3)oc12
TARGET_UNDER_TEST: Chinese hamster lung fibroblast cell line VC8 (BRCA2−/−)
PROPERTY_MEASURED: IC50
TEST_VALUE: 2010
--
COMPOUND_STRUCTURE_STRING: NC(=O)c1cc(F)cc2cc(-c3ccc(CN[C@@H]4CCOC4)cc3)oc12
TARGET_UNDER_TEST: Chinese hamster lung fibroblast cell line VC8 (BRCA2−/−)
PROPERTY_MEASURED: IC50
TEST_VALUE: 1180
--
COMPOUND_STRUCTURE_STRING: CN1CCN(Cc2ccc(-c3cc4cc(F)cc(C(N)=O)c4o3)cc2)CC1
TARGET_UNDER_TEST: Chinese hamster lung fibroblast cell line VC8 (BRCA2−/−)
PROPERTY_MEASURED: IC50
TEST_VALUE: 2140
--
COMPOUND_STRUCTURE_STRING: NC(=O)c1cc(F)cc2cc(-c3ccc(CNC4CCNCC4)cc3)oc12
TARGET_UNDER_TEST: Chinese hamster lung fibroblast cell line VC8 (BRCA2−/−)
PROPERTY_MEASURED: IC50
TEST_VALUE: 8220
--
COMPOUND_STRUCTURE_STRING: CC(C)NCc1ccc(-c2cc3cc(F)cc(C(N)=O)c3o2)cc1
TARGET_UNDER_TEST: Chinese hamster lung fibroblast cell line VC8 (BRCA2−/−)
PROPERTY_MEASURED: IC50
TEST_VALUE: 941
--
COMPOUND_STRUCTURE_STRING: CNCc1ccc(-c2cc3cc(F)cc(C(N)=O)c3o2)nc1
TARGET_UNDER_TEST: Chinese hamster lung fibroblast cell line VC8 (BRCA2−/−)
PROPERTY_MEASURED: IC50
TEST_VALUE: 1740
--
COMPOUND_STRUCTURE_STRING: CNCc1ccc(-c2cc3cc(F)cc(C(N)=O)c3o2)cc1F
TARGET_UNDER_TEST: Chinese hamster lung fibroblast cell line VC8 (BRCA2−/−)
PROPERTY_MEASURED: IC50
TEST_VALUE: 1510
--
COMPOUND_STRUCTURE_STRING: NC(=O)c1cc(F)cc2cc(-c3ccc(CN4CCCC4)cc3)oc12
TARGET_UNDER_TEST: Chinese hamster lung fibroblast cell line VC8 (BRCA2−/−)
PROPERTY_MEASURED: IC50
TEST_VALUE: 2620
--
COMPOUND_STRUCTURE_STRING: CNCc1ccc(-c2cc3cc(F)cc(C(N)=O)c3o2)c(F)c1
TARGET_UNDER_TEST: Chinese hamster lung fibroblast cell line VC8 (BRCA2−/−)
PROPERTY_MEASURED: IC50
TEST_VALUE: 1620

---

ASSAY_NAME: Preliminary pharmacokinetic experiment in rats by gavage
Assay type: in vivo, SD rats
MEASUREMENT_CONDITIONS: male, Sprague-Dawley (SD), rat, plasma, po, 10 mg/kg, 10 mg/kg by gavage, read-out: AUC0-t
PROPERTY_MEASURED: AUC0-t

COMPOUND_STRUCTURE_STRING: CNCc1ccc(-c2cc3cc(F)cc(C(N)=O)c3o2)cc1
TEST_VALUE: 452 ng·h/mL
